Overview of recorded dH for various binders
# system_name: yeast histone H3-H4 tetramer (Saccharomyces cerevisiae, UniProt P61830 1-136; P02309 1-103)
# test_name: ITC; ITC200 at 20 °C; 0.5 mM ARB2 or mutant in the injector, 0.2 mM H2A/B or 0.25 mM H3/4 in the sample cell; 25 mM Tris-HCl pH 7.5, 200 mM NaCl; single-site fitting model
# run_conditions: both partners purified
property: dH

>>> result("ARB2 domain of Hda1 (Hda1^457–698) (domain or fragment, Saccharomyces cerevisiae, UniProt P53973 457-698, looked up, Hda1 (histone deacetylase), S. cerevisiae, C-terminal ARB2 domain, residues 457-698; Homodimer in the crystal (symmetry-related molecules) and by size-exclusion chromatography; A selenomethionine derivative was used for phasing only; also called Native-Hda1^457–698; wild-type ARB2 domain; source: E. coli BL21 (DE3), purified (Ni-NTA, HiTrap Q FF, Superdex 200)) LQKAIRQQQQHYLSDEFNFVTLPLVSMDLPDNTVLCTPNISESNTIIIVVHDTSDIWAKRNVISGTIDLSSSVIIDNSLDFIKWGLDRKYGIIDVNIPLTLFEPDNYSGMITSQEVLIYLWDNYIKYFPSVAKIAFIGIGDSYSGIVHLLGHRDTRAVTKTVINFLGDKQLKPLVPLVDETLSEWYFKNSLIFSNNSHQCWKENESRKPRKKFGRVLRCDTDGLNNIIEERFEEATDFILDS")
"-33.9 kcal/mol"
>>> result("ARB2-M1 (residues Gln463, His467 and Asp471 mutated to Ala) (domain or fragment, Saccharomyces cerevisiae, UniProt P53973 457-698, looked up, Hda1, S. cerevisiae, ARB2 domain, residues 457-698, with three substitutions around the groove; source: E. coli BL21 (DE3), purified (Ni-NTA, HiTrap Q FF, Superdex 200)) LQKAIRAQQQAYLSAEFNFVTLPLVSMDLPDNTVLCTPNISESNTIIIVVHDTSDIWAKRNVISGTIDLSSSVIIDNSLDFIKWGLDRKYGIIDVNIPLTLFEPDNYSGMITSQEVLIYLWDNYIKYFPSVAKIAFIGIGDSYSGIVHLLGHRDTRAVTKTVINFLGDKQLKPLVPLVDETLSEWYFKNSLIFSNNSHQCWKENESRKPRKKFGRVLRCDTDGLNNIIEERFEEATDFILDS")
"-7.63 kcal/mol"
>>> result("ARB2-M2 (residues Tyr468 and Glu472 mutated to Ala) (domain or fragment, Saccharomyces cerevisiae, UniProt P53973 457-698, looked up, Hda1, S. cerevisiae, ARB2 domain, residues 457-698, with two substitutions around the groove; source: E. coli BL21 (DE3), purified (Ni-NTA, HiTrap Q FF, Superdex 200)) LQKAIRQQQQHALSDAFNFVTLPLVSMDLPDNTVLCTPNISESNTIIIVVHDTSDIWAKRNVISGTIDLSSSVIIDNSLDFIKWGLDRKYGIIDVNIPLTLFEPDNYSGMITSQEVLIYLWDNYIKYFPSVAKIAFIGIGDSYSGIVHLLGHRDTRAVTKTVINFLGDKQLKPLVPLVDETLSEWYFKNSLIFSNNSHQCWKENESRKPRKKFGRVLRCDTDGLNNIIEERFEEATDFILDS")
"-24.1 kcal/mol"
>>> result("ARB2-M3 (residues Val481, Ser482, Met483 and Asp484 mutated to Ala) (domain or fragment, Saccharomyces cerevisiae, UniProt P53973 457-698, looked up, Hda1, S. cerevisiae, ARB2 domain, residues 457-698, with four substitutions around the groove; source: E. coli BL21 (DE3), purified (Ni-NTA, HiTrap Q FF, Superdex 200)) LQKAIRQQQQHYLSDEFNFVTLPLAAAALPDNTVLCTPNISESNTIIIVVHDTSDIWAKRNVISGTIDLSSSVIIDNSLDFIKWGLDRKYGIIDVNIPLTLFEPDNYSGMITSQEVLIYLWDNYIKYFPSVAKIAFIGIGDSYSGIVHLLGHRDTRAVTKTVINFLGDKQLKPLVPLVDETLSEWYFKNSLIFSNNSHQCWKENESRKPRKKFGRVLRCDTDGLNNIIEERFEEATDFILDS")
"-20.2 kcal/mol"
